# TGT: Voltage-gated inwardly rectifying potassium channel KCNH2 (Homo sapiens)
# Sequence (Q12809 whole entry): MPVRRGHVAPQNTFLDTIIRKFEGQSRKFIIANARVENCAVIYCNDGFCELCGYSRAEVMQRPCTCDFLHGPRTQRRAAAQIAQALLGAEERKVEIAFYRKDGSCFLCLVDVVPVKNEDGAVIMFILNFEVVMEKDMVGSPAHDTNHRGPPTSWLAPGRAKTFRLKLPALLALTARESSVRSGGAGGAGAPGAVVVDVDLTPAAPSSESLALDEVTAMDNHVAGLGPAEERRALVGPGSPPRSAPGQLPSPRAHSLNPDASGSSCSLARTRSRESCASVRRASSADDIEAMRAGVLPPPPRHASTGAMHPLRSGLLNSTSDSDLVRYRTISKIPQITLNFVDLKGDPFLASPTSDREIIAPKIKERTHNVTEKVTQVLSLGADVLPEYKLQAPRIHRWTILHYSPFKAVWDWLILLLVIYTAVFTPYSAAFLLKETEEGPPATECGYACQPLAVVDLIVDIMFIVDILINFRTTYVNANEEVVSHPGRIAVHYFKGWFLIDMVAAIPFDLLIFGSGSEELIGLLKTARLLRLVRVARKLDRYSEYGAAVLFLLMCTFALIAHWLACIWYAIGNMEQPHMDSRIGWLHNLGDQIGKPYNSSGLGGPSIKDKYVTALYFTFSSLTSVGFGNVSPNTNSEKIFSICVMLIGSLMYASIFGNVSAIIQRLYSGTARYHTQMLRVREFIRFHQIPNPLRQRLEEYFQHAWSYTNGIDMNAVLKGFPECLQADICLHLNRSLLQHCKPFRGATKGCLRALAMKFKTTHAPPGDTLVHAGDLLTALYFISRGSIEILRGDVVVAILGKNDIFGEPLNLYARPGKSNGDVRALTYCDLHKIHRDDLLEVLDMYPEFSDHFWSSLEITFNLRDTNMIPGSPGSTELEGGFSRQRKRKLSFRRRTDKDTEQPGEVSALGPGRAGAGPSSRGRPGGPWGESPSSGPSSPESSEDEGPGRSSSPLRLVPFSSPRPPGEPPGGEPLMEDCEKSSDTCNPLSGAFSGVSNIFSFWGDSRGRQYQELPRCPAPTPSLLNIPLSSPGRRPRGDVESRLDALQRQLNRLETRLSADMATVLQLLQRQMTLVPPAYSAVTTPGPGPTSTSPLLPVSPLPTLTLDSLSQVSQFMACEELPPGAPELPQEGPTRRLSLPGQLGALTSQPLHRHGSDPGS
# MEASUREMENT DESCRIPTION: Activity at human ERG by patch clamp assay
MEASUREMENT KIND: pEC50
The read-out pEC50 is expressed as -log10 of concentration in moles per litre.

Prompt: # get_value(readout='pEC50', item= Cn1cncc1C(=O)N(Cc1cc(=O)[nH]c2c(F)c(F)ccc12)c1cccc(Cl)c1 )
Completion: 5.10

----------
# TGT: Cytochrome P450 3A4 (Homo sapiens)
# Sequence (P08684 whole entry): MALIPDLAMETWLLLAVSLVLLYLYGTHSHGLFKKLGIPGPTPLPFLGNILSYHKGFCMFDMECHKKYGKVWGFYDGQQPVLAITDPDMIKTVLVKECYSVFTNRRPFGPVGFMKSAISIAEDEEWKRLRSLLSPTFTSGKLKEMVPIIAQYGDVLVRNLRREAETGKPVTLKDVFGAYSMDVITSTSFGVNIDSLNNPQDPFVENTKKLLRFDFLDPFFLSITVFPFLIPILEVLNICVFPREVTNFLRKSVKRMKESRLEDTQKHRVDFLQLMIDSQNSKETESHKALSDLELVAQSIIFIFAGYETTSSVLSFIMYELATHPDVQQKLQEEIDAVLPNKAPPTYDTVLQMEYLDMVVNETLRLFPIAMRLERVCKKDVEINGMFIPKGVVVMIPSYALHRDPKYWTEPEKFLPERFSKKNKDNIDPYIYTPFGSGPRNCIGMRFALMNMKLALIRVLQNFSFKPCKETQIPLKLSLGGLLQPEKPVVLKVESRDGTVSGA
# MEASUREMENT DESCRIPTION: Inhibition of CYP3A4
For each record, check the reported EC50: if it is below 2 µM write criterion met, else write criterion not met.

Use these answered entries as a reference point.
• CC1=C(C(=O)N(Cc2cc(=O)[nH]c3c(F)c(F)ccc23)c2cccc(Cl)c2)CNCC1 = criterion not met
• CC(C)C(=O)N(Cc1cc(=O)[nH]c2c(F)cccc12)c1cccc(Cl)c1 = criterion not met
• Cc1ncsc1C(=O)N(Cc1c[n+]([O-])cc2c(F)c(F)ccc12)c1cccc(Cl)c1 = criterion met
• Cc1ncsc1C(=O)N(Cc1cc(=O)[nH]c2c(F)c(F)ccc12)c1cccc(Cl)c1 = criterion not met
• Cc1ncsc1C(=O)N(Cc1cc(=O)[nH]c2c(F)cccc12)c1cccc(Cl)c1 = criterion not met

We now examine a further compound.
Prompt: Answer whether the compound Cn1cncc1C(=O)N(Cc1cc(=O)[nH]c2c(F)c(F)ccc12)c1cccc(Cl)c1 has EC50 strictly less than 2 µM
Completion: criterion met

----------
Reported pEC50 values for the following compounds.
# TGT: Cytochrome P450 1A2 (Homo sapiens, UniProt P05177)
# Sequence (P05177 whole entry): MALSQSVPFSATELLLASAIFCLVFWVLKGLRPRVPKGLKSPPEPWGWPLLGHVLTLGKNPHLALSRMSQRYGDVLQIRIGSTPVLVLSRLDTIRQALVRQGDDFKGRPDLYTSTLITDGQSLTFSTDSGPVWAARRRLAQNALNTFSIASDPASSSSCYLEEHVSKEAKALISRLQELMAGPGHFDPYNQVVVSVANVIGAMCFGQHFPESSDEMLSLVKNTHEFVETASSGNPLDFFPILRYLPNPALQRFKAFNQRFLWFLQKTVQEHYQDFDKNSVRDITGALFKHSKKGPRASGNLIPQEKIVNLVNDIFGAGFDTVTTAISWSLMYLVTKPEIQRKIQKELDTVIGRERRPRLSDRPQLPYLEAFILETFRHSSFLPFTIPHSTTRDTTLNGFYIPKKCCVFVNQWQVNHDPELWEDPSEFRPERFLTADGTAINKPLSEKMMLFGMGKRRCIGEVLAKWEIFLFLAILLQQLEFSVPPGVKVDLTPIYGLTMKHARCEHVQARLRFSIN
# MEASUREMENT DESCRIPTION: Inhibition of CYP1A2
pEC50: −log10 of the molar value.

Look over these answered cases.
* Cc1ncsc1C(=O)N(Cc1cc(=O)[nH]c2c(F)c(F)ccc12)c1cccc(Cl)c1 | 4.28
* Cn1cncc1C(=O)N(Cc1cc(=O)[nH]c2c(F)c(F)ccc12)c1cccc(Cl)c1 | 4.02
* Cc1ncsc1C(=O)N(Cc1c[n+]([O-])cc2c(F)c(F)ccc12)c1cccc(Cl)c1 | < 4.00
* CC(C)C(=O)N(Cc1cc(=O)[nH]c2c(F)cccc12)c1cccc(Cl)c1 | < 4.00
* CC1=C(C(=O)N(Cc2cc(=O)[nH]c3c(F)c(F)ccc23)c2cccc(Cl)c2)CNCC1 | < 4.00

Here is another compound to look at.
Prompt: Which pEC50 value belongs to Cc1ncsc1C(=O)N(Cc1cc(=O)[nH]c2c(F)cccc12)c1cccc(Cl)c1 ?
Completion: < 4.00
